test: The drug is tested on WLS-007 corresponding to human gut metagenome with ENA study accession number: PRJEB37062 and ENA sample accession number: ERS12561742 for biotransformation under anaerobic condition. The drug concentrations were measured over 9 timepoints collected between 0 and 24 hours of incubation by liquid-chromatography-coupled mass spectrometry (LC–MS); conditions: 2 µM; further: call rule not given here
Endpoint: Bacterial Biotransformation

Recorded results for 4 molecules are shown here.
>  <Molecule>
CN(C)CCc1c[nH]c2ccc(Cn3cncn3)cc12.O=C(O)c1ccccc1 [RIZATRIPTAN BENZOATE]

>  <Result>
Compound NOT metabolized

$$$$
>  <Molecule>
CC(C)(C#N)c1cc(Cn2cncn2)cc(C(C)(C)C#N)c1

>  <Result>
Compound NOT metabolized

$$$$
>  <Molecule>
CCc1nn(CCCN2CCN(c3cccc(Cl)c3)CC2)c(=O)n1CCOc1ccccc1

>  <Result>
Compound metabolized

$$$$
>  <Molecule>
COc1ccc2[nH]c([S+]([O-])Cc3ncc(C)c(OC)c3C)nc2c1 (stereo not given)

>  <Result>
Compound metabolized

$$$$

Input: Indicate the recorded Bacterial Biotransformation value for this molecule: Br.CN(C)CCCC1(c2ccc(F)cc2)OCc2cc(C#N)ccc21 (stereo not given) [CITALOPRAM HYDROBROMIDE]
Output: Compound NOT metabolized
